Data origin: patent US9404081B2

# tgt: PKR R532W (Homo sapiens, UniProt P30613, R532W)
# Sequence (P30613 whole entry R532W): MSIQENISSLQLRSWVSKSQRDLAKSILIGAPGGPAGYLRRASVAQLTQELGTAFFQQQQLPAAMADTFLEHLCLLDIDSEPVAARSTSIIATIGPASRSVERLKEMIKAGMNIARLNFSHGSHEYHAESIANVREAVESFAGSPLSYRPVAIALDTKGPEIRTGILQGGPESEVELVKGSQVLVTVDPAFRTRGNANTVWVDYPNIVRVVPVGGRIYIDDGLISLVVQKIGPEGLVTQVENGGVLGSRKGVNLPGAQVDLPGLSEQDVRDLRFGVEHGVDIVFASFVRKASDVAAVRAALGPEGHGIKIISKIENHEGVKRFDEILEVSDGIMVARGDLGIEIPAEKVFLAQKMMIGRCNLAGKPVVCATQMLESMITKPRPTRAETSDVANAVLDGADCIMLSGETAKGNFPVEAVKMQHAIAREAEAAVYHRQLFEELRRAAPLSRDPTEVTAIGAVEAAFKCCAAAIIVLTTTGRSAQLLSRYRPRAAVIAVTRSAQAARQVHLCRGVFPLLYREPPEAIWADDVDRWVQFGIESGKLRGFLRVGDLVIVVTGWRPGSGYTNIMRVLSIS
# protocol notes: PKR Mutant Assay (AC50), PKR R532W
# Type: biochemical
measured metric: AC50

In [3]: df
Out[3]:
                                   compound  measured_metric  result_value
0  CC(C)OC(=O)N1CCN(C(=O)c2ccc(NS(=O)(=O)c3cccc4cccnc34)cc2)[C@H](C)C1             AC50      < 100 nM
1  CC(C)OC(=O)N1[C@H](C)CN(C(=O)c2ccc(NS(=O)(=O)c3cccc4cccnc34)cc2)C[C@@H]1C             AC50      > 500 nM
2  COc1ccccc1N1CCN(C(=O)c2ccc(NS(=O)(=O)c3cccc4cccnc34)cc2)C(C)C1 (stereo not drawn)             AC50      < 100 nM
3  O=C(c1ccc(NS(=O)(=O)c2cccc3cccnc23)cc1)N1CCN(C[C@@H]2CCOC2)CC1             AC50      < 100 nM
4  CCOC(=O)N1CCN(C(=O)c2ccc(NS(=O)(=O)c3cccc4cccnc34)cc2)[C@@H](C)C1             AC50      > 500 nM
5  O=C(c1ccc(NS(=O)(=O)c2cccc3cccnc23)cc1)N1CCN(C[C@H]2CCOC2)CC1             AC50      < 100 nM
